Target: T1, human common cytokine receptor γ-chain (IL-2Rγ) (human, UniProt P31785 23-262, limits assumed)
T1 construct: Recombinant human IL-2Rγ protein, coated (ELISA) or amine-coupled to a CM5 chip (SPR); also called hu IL-2R; CD132
T1 sequence: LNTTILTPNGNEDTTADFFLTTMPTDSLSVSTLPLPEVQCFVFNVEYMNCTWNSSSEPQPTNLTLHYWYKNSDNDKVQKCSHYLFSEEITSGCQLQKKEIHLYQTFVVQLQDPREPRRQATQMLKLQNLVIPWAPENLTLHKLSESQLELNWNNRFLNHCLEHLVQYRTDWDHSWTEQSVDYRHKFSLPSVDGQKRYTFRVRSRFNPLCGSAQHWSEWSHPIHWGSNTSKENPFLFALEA
Test: P.E. binding ELISA
Below, each of the binders is paired with its reported PE binding ELISA OD value.

>  <binder>
FJ1427_P035MP07H02 (VHH, tested as periplasmic extract; also called Clone nr; 592) VHH: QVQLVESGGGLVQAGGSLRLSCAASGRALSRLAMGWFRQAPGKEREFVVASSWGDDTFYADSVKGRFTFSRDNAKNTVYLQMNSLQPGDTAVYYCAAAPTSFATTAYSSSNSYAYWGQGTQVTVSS

>  <PE binding ELISA OD>
0.801 OD450 nm

$$$$
>  <binder>
FJ1427_P035MP07F04 (VHH, tested as periplasmic extract; also called Clone nr; 606) VHH: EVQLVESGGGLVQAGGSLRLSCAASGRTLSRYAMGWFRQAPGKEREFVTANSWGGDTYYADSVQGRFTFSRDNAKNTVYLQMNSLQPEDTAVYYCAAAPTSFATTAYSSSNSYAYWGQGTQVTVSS

>  <PE binding ELISA OD>
0.4 OD450 nm

$$$$
>  <binder>
FJ1427_P035MP07C09 (VHH, tested as periplasmic extract; also called Clone nr; 643) VHH: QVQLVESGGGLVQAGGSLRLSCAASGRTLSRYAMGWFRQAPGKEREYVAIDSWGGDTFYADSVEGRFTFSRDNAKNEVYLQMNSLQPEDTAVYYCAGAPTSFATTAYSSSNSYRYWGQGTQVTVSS

>  <PE binding ELISA OD>
0.723 OD450 nm

$$$$

In the following, a different binder is considered.
Ask: Recorded PE binding ELISA OD for FJ1427_P035MP07C08 (VHH, tested as periplasmic extract; also called Clone nr; 635) VHH: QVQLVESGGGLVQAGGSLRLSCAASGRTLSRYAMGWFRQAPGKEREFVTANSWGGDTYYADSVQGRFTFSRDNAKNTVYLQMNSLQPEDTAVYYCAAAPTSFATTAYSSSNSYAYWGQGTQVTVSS , please?
Reply: 0.528 OD450 nm
